Exercise: for every item that follows, state its recorded GI50.
tested on: BT-549; experiment: NCI tumour cell line growth inhibition, 48 h
The source made the active and inactive calls. Rule as the data show it: active = GI50 up to about 1.1 µM and inactive = higher.

Answer for every listed entry: what is its GI50? The entries follow.
1. CC(=O)Nc1cc([As](=O)(O)O)ccc1O
2. Oc1ccc(NCn2c(=S)sc3ccccc32)cc1
3. COc1cc(-c2nc3ccccn3c2/N=C/c2cc(Br)cc(Br)c2O)ccc1O
4. COc1cc(/C=C/C(=O)c2ccc(NS(=O)(=O)c3cc([N+](=O)[O-])ccc3C)cc2)cc(OC)c1OC
5. O=C1C=CC(=O)c2c1ccc1c3ccccc3n(CCCCCCCCCCCCn3c4ccccc4c4ccc5c(c43)C(=O)C=CC5=O)c21
6. CCN(CC)CCN(/C(=N/c1ccccc1)N1CCOCC1)c1ccccc1

1. > 100 µM (inactive)
2. > 100 µM (inactive)
3. 20.3 µM (inactive)
4. 4.27 µM (inactive)
5. > 100 µM (inactive)
6. > 100 µM (inactive)

====

test system: HCT-15; experiment: NCI tumour cell line growth inhibition, 48 h
Exercise: for every item that follows, state its recorded GI50.
One number for each entry, in µM.

Some molecules with known GI50 results, for comparison:
- O=C(CCN1CCC(CCO)CC1)Nc1ccc2c(c1)C(=O)c1ccc(NC(=O)CCN3CCC(CCO)CC3)cc1C2=O: 27.7
- OC1c2ccccc2[C@@H]2[C@H]1[C@@H](c1ccccc1)C1(Cc3ccccc3C1O)[C@H]2c1ccccc1 (some centres undefined): 4.07
- CCOC(=O)/C(C#N)=C/c1ccc2c(c1)CC1(C2)Cc2cc(CC)c(C(C)O)cc2C1 (centres undefined): 5.24

Answer for every listed entry: what is its GI50? The entries follow.
1. CCCS(=O)OC1C(C2COC(C)(C)O2)OC2OC(C)(C)OC21 (centres undefined)
2. O=NN(CCCl)C(=O)NC1CCCCC1

1: 13.7; 2: 29.9

====

test system: UACC-257; experiment: NCI tumour cell line growth inhibition, 48 h
Activity calls are given as the source filed them. No stated cut-off is given here; in the data, active = GI50 up to about 1.1 µM and inactive = higher.
Pick one: active, inactive

Worked set:
- COc1cccc(/C=C2\N=C(Cl)OC2=O)c1O: inactive
- CCc1cccc(C(C)(C)C)c1NC(=S)N/C=C(/C#N)C(N)=O: inactive
- C[C@@H]1[C@@H]2[C@@H](C=C3C4CCC5Cc6nc7c(nc6C[C@@]5(C)C4C[C@H](O)[C@]32CO)CC2CCC3C4=C[C@H]5O[C@@]6(OC(C)(CO)C[C@@H]6O)[C@H](C)[C@@]5(O)[C@]4(C)[C@@H](O)CC3[C@]2(C)C7)O[C@]12CCC(C)(C)O2 (stereo not given in full): active
- COc1ccc(C[C@@H](C(=O)O[C@H](C)[C@H](NC(=O)[C@@H](CC(C)C)N(C)C(=O)C2CCCN2C(=O)[C@H](C)O)C(=O)N2CCCCNC(=O)[C@@H](C)C(=O)[C@H](C(C)C)OC(=O)C[C@H](O)[C@H]2CC(C)C)N(C)C(C)=O)cc1 (stereo not given in full): inactive
- CCCCC1Cc2cc(O)ccc2-c2n1c1cc(O)ccc1[n+]2C.CCCCC1Cc2cc(O)ccc2-c2n1c1ccc(O)cc1[n+]2C (stereo not given): inactive
- CC1CC(C)C(=O)C(C(=O)CC2CC(=O)NC2=O)C1 (stereo not given): inactive
- CCc1ccc2c(c1)CC1(C2)Cc2cc3c(cc2C1)C(=O)CC3 (stereo not given): inactive
- COc1cccc(N(CN2C(=O)CCC2C(=O)O)C(C)=O)c1 (stereo not given): inactive

Record request — test call for `O=c1cc(NNc2ccc(F)cc2)[nH]c(=O)[nH]1`
inactive

Record request — test call for `C=CCc1cccc(/C=N\N/C(N)=N/O)c1O`
inactive
